experiment: physchem; conditions: aqueous buffer, pH 7.4
Description: Solubility in aqueous buffer at pH 7.4
Measured Quantity: solubility

[
  {
    "Structure As Smiles": "CCS(=O)(=O)c1ccc(CC(=O)Nc2cc(-c3cc(C#N)cc(F)c3OC)cs2)cc1",
    "Meas Value": "0.4 to 0.6 µM"
  },
  {
    "Structure As Smiles": "CCS(=O)(=O)c1ccc(CC(=O)Nc2cc(-c3cc(C#N)ccc3OC)cs2)cc1",
    "Meas Value": "0.43 µM"
  },
  {
    "Structure As Smiles": "CCS(=O)(=O)c1ccc(CC(=O)Nc2cc(-c3cccc(Cl)c3)c(C(=O)c3ccccc3Cl)s2)cc1",
    "Meas Value": "< 0.1 µM"
  },
  {
    "Structure As Smiles": "CCS(=O)(=O)c1ccc([C@@H](NC(C)=O)C(=O)Nc2cc(-c3cccnc3OCc3ccc(OC(F)(F)F)cc3)cs2)cc1",
    "Meas Value": "0.3 µM"
  },
  {
    "Structure As Smiles": "CCS(=O)(=O)c1ccc(CC(=O)Nc2cc(-c3cccnc3OCc3ccccc3)cs2)cc1",
    "Meas Value": "0.42 µM"
  }
]

Values compiled from ChEMBL document CHEMBL4145688.
